Assay: Cytotoxicity against human Calu-3 cells assessed as reduction in cell viability incubated for 72 hrs by methylene blue assay
Type: toxicity, cell-based
Exercise: for every item that follows, state its recorded CC50 at 72 h.

// query Can you look up the measured CC50 at 72 h of COc1ccc(/C=C2\Oc3cc(O)ccc3C2=O)cc1 for me?
// result > 250 µM

// query Look up CC50 at 72 h for this molecule: COCOc1cc(/C=C2\Oc3ccccc3C2=O)ccc1OC
// result > 300 µM

// query Form field: reported CC50 at 72 h of COc1ccc2c(c1)O/C(=C\c1ccccc1)C2=O
// result > 1000 µM

// query Endpoint output: CC50 at 72 h of COc1ccc(/C=C2\Oc3cc(O)ccc3C2=O)cc1O . Value?
// result > 250 µM

// query # get_value(readout='CC50 at 72 h', item= COc1ccc2c(c1)O/C(=C\c1ccc(O)cc1)C2=O )
// result > 300 µM

// query Data request, read-out CC50 at 72 h, for COc1ccc(/C=C2\Oc3c(ccc(O)c3O)C2=O)cc1
// result > 300 µM
